- subject-of-test: RORγ (Homo sapiens, UniProt P51449)
- Sequence (P51449 whole entry, looked up, the tested form may be a part): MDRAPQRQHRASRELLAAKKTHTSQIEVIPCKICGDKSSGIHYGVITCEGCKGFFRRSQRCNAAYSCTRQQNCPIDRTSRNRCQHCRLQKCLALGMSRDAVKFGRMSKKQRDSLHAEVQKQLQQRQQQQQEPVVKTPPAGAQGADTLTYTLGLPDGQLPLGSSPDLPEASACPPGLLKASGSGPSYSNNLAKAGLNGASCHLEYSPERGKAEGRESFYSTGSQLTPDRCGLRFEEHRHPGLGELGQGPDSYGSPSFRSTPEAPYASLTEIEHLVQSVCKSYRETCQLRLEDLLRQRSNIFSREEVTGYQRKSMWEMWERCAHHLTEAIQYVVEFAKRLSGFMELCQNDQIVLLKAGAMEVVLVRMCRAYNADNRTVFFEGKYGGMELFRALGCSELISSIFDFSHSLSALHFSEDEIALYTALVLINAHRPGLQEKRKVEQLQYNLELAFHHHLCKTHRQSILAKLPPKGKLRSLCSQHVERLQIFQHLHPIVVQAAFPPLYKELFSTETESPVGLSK
- assay-name: RORγ Gal4 Reporter Gene Assay
- Type: cell-based
- Description: Determination of a ligand mediated Gal4 promoter driven transactivation to quantify ligand binding to RORγ was performed as follows: DNA encoding three different RORγ protein fragments was cloned into vector pCMV-BD (Stratagene). Expression was under control of a CMV promoter and as fusion to the DNA-binding domain of the yeast protein GAL4. […]
# reported pIC50 (REN); entries follow
measure: pIC50 (REN)

[[record]]
chemical_string = "CC(C)(O)CNC(=O)c1nc(CC2CCCCC2)c(-c2ccc(S(=O)(=O)NC(C)(C)C)c(Cl)c2Cl)o1"
measure = "pIC50 (REN)"
assay_result = "6.4/7.4/7.5"

[[record]]
chemical_string = "CC(C)(C)NS(=O)(=O)c1ccc(-c2sc(C(=O)NN3CCS(=O)(=O)CC3)nc2CC2CCCCC2)c(Cl)c1Cl"
measure = "pIC50 (REN)"
assay_result = "6.8/8.7/8.7"

[[record]]
chemical_string = "CC(C)(C)NS(=O)(=O)c1ccc(-c2sc(S(N)(=O)=O)nc2CC2CCCCC2)cc1C(C)(C)C"
measure = "pIC50 (REN)"
assay_result = "6.3/6.6/6.6"

[[record]]
chemical_string = "CC(C)(C)NS(=O)(=O)c1ccc(-c2sc(C(=O)N3CC(C(C)(C)C(=O)O)C3)nc2CC2CCCCC2)c(Cl)c1Cl"
measure = "pIC50 (REN)"
assay_result = "6.1/6.9/6.9"

[[record]]
chemical_string = "O=C(c1nc(CC2CCCCC2)c(-c2ccc(S(=O)(=O)N3CCOCC3)c3ccccc23)s1)N1CC2(CCS(=O)(=O)CC2)C1"
measure = "pIC50 (REN)"
assay_result = "6.2/6.4/6.3"

[[record]]
chemical_string = "CC(C)(C)c1cc(-c2cc(C(N)=O)ccc2CC2CCCCC2)cc(C(C)(C)C)c1"
measure = "pIC50 (REN)"
assay_result = "6.5/6.3/6.3"

[[record]]
chemical_string = "O=C(c1nc(CC2CCCCC2)c(-c2ccc(S(=O)(=O)NC3CCOCC3)c3ccccc23)s1)N1CC2(CCS(=O)(=O)CC2)C1"
measure = "pIC50 (REN)"
assay_result = "6.2/7.3/7.4"


###

- subject-of-test: RORγ (Homo sapiens, UniProt P51449)
- assay-name: RORγ Gal4 Reporter Gene Assay
- Assay type: cell-based
measure: pIC50 (FF)

[[record]]
molecule = "CC1(C)COCCN1Cc1ccc(-c2sc(C(=O)NC3CCS(=O)(=O)CC3)nc2CC2CCCCC2)c2ccccc12"
assay_result = "6.8/7.7/7.9"

[[record]]
molecule = "CC(C)(C)NS(=O)(=O)c1ccc(-c2sc(C(=O)NCC3(C(=O)O)CCOCC3)nc2CC2CCCCC2)c(Cl)c1Cl"
assay_result = "6.3/7.4/7.4"

[[record]]
molecule = "COC(C)(C)c1cc(-c2sc(C(=O)N[C@H]3C[C@H](C(=O)O)C3)nc2CC2CCCCC2)cc(C2(C)CC2)c1"
assay_result = "6.7/7.8/7.9"

[[record]]
molecule = "CNC(=O)C(C)(C)CCNC(=O)c1nc(CC2CCCCC2)c(-c2ccc(S(=O)(=O)NC(C)(C)C)c(C(F)(F)F)c2)s1"
assay_result = "6.2/7.0/7.1"

[[record]]
molecule = "CC(C)(C)NS(=O)(=O)c1ccc(-c2sc(C(=O)NCC(C)(C)C(=O)O)nc2CC2CCCCC2)cc1C(F)(F)F"
assay_result = "6.4/7.2/7.4"

[[record]]
molecule = "CC(C)(O)CNC(=O)c1nc(CC2CCCCC2)c(-c2ccc(S(=O)(=O)NC3(C(N)=O)CC3)c3ccccc23)s1"
assay_result = "6.4/7.5/7.6"

[[record]]
molecule = "CC1(c2cc(-c3sc(C(=O)N[C@H]4C[C@H](C(=O)O)C4)nc3CC3CCCCC3)cc(C(F)(F)F)c2)CC1"
assay_result = "6.5/7.1/7.1"

[[record]]
molecule = "C[C@H](NC(=O)c1cc(-c2sc(C(=O)NCC(C)(C)O)nc2CC2CCCCC2)cc(C2(C)CC2)c1)C(F)(F)F"
assay_result = "7.0/8.2/8.3"

[[record]]
molecule = "CC(C)(C)NS(=O)(=O)c1ccc(-c2sc(S(N)(=O)=O)nc2CC2CCCCC2)cc1C(C)(C)C"
assay_result = "6.3/6.6/6.6"

[[record]]
molecule = "CC(C)(O)CNC(=O)c1nc(CC2CCCCC2)c(-c2ccc(S(=O)(=O)NC(C)(C)C)c(Cl)c2Cl)o1"
assay_result = "6.4/7.4/7.5"

[[record]]
molecule = "CC(C)(C)NS(=O)(=O)c1ccc(-c2sc(C(=O)NC3C[S+]([O-])C3)nc2CC2CCCCC2)cc1C(C)(C)O (stereo not shown) [15/2]"
assay_result = "6.6/7.3/7.3"

[[record]]
molecule = "COC(c1nc(C(=O)N[C@H]2C[C@H](C(=O)O)C2)sc1-c1ccc(S(=O)(=O)NC(C)(C)C)c(C(C)(C)C)c1)C1CCCCC1 (stereo partly shown)"
assay_result = "5.4/6.4/6.6"

[[record]]
molecule = "CC(C)(C)NS(=O)(=O)c1ccc(-c2sc(C(=O)NC3C[S+]([O-])C3)nc2CC2CCCCC2)c(Cl)c1Cl (stereo not shown)"
assay_result = "6.9/8.5/8.4"

